Tested on: FD (familial dysautomonia) IKBKAP minigene, exon 20 inclusion, in HEK293T cells
Assay: Primary splicing assay (FD IKBKAP minigene, Firefly/Renilla luciferase reporter in HEK293T)
Assay type: cell-based, human
Conditions: Homo sapiens, HEK-293T; max efficacy in Primary Assay; Firefly/Renilla ratio, kinetin and DMSO as positive and negative controls; 24 hours of treatment; read-out: Emax (%)
parameter: Emax (%)
The figure you give is taken to be in %; do not add the unit.

[
  {
    "compound": "c1csc(CNc2ncnc3[nH]cnc23)n1 [(16)]",
    "Emax (%)": 67
  },
  {
    "compound": "N#Cc1nc2c(NCc3ccco3)nc(Cl)nc2[nH]1 [(162)]",
    "Emax (%)": 103
  }
]

Ask: # query: Emax | item COc1nc2c(NCc3ccncc3)nc(Cl)nc2n1CCO [(287)] | system: FD (familial dysautomonia) IKBKAP minigene, exon 20 inclusion, in HEK293T cells
Reply: 106

Ask: Next compound up: OCCCOc1nc2c(NCc3nccs3)nc(Cl)nc2[nH]1 [(276)]
Reply: 188

Ask: Next compound up: Clc1nc(NCc2cscn2)c2nc(OCC3CCO3)[nH]c2n1 (stereo not shown) [(493)]
Reply: 168

Ask: Next compound up: CC(C)(C)OC(=O)N1Cc2nc(Cl)nc(NCc3ccco3)c2C1 [(508)]
Reply: 80

Ask: Next compound up: OCc1cc2c(NCc3ccco3)nc(Cl)nc2[nH]1 [(170)]
Reply: 92

Ask: Next compound up: O=C(O)Cn1ccc2c(NCc3ccco3)nc(Cl)nc21 [(167)]
Reply: 37

* * *

As shown below, each of these compounds has a reported Emax value.
System: FD (familial dysautomonia) IKBKAP minigene, exon 20 inclusion, in HEK293T cells
Experiment: Primary splicing assay (FD IKBKAP minigene, Firefly/Renilla luciferase reporter in HEK293T)
Type: cell-based, human
Settings: Homo sapiens, HEK-293T; max efficacy in Primary Assay; Firefly/Renilla ratio, kinetin and DMSO as positive and negative controls; 24 hours of treatment; read-out: Emax (%)
Record the result as a number with its unit.

[
  {
    "substanceSmiles": "O=c1cc(CNc2nc(Cl)nc3[nH]ccc23)cc[nH]1",
    "targetOrTestSystem": "FD (familial dysautomonia) IKBKAP minigene, exon 20 inclusion, in HEK293T cells",
    "Emax": "10%"
  },
  {
    "substanceSmiles": "CC(F)(F)COc1nc2c(NCc3ccco3)nc(Cl)nc2[nH]1",
    "targetOrTestSystem": "FD (familial dysautomonia) IKBKAP minigene, exon 20 inclusion, in HEK293T cells",
    "Emax": "201%"
  },
  {
    "substanceSmiles": "CC(F)(F)COc1nc2c(NCc3nccs3)nc(Cl)nc2[nH]1",
    "targetOrTestSystem": "FD (familial dysautomonia) IKBKAP minigene, exon 20 inclusion, in HEK293T cells",
    "Emax": "215%"
  }
]

Turning to the following compound.
Ask: What does the record list as Emax for N#Cc1c[nH]c2nc(Cl)nc(NCc3nccs3)c12 ?
Reply: 62%

* * *

Test system: FD (familial dysautomonia) IKBKAP minigene, exon 20 inclusion, in HEK293T cells
Assay: Primary splicing assay (FD IKBKAP minigene, Firefly/Renilla luciferase reporter in HEK293T)
Assay type: cell-based, human
Settings: Homo sapiens, HEK-293T; max efficacy in Primary Assay; Firefly/Renilla ratio, kinetin and DMSO as positive and negative controls; 24 hours of treatment; read-out: Emax (%)
As shown below, each of these compounds has a reported Emax value.

[
  {
    "compound": "c1cncc(CNc2ncnc3[nH]cnc23)c1",
    "parameter": "Emax",
    "result": "39%"
  },
  {
    "compound": "Clc1nc(NCc2ncccn2)c2cc[nH]c2n1",
    "parameter": "Emax",
    "result": "9.8%"
  },
  {
    "compound": "Clc1nc(NCc2ccncn2)c2nc[nH]c2n1",
    "parameter": "Emax",
    "result": "169%"
  }
]

Ask: What does the record list as Emax for FC(F)(F)COc1nc2c(NCc3ccco3)nc(Cl)nc2[nH]1 ?
Reply: 218%

Ask: Next compound up: OCCCOc1nc2c(NCc3ccco3)nc(Cl)nc2[nH]1
Reply: 256%

Ask: Next compound up: Clc1nc(NCc2ccco2)c2ncn(Cc3cccnc3)c2n1
Reply: 69%

Ask: Next compound up: Clc1nc(NCc2ccco2)c2ncn(Cc3ccncc3)c2n1
Reply: 39%

Ask: Next compound up: O=C(NCCO)c1cc2c(NCc3ccco3)nc(Cl)nc2[nH]1
Reply: 86%

Ask: Next compound up: CSc1nc2c(NCc3ccncn3)nc(Cl)nc2[nH]1
Reply: 243%

* * *

Tested on: FD (familial dysautomonia) IKBKAP minigene, exon 20 inclusion, in HEK293T cells
Experiment: Primary splicing assay (FD IKBKAP minigene, Firefly/Renilla luciferase reporter in HEK293T)
Format: cell-based, human
Details: Homo sapiens, HEK-293T; max efficacy in Primary Assay; Firefly/Renilla ratio, kinetin and DMSO as positive and negative controls; 24 hours of treatment; read-out: Emax (%)
Protocol: As used herein, the expression “ECk” refers to the compound concentration at which the maximum kinetin efficacy (200 μM) is reached. […]
Y means recorded Emax is 70% or above; N means it is below 70%.

Examples from the recorded data:
[
  {
    "substanceSmiles": "COC(=O)COc1nc2c(NCc3nccs3)nc(Cl)nc2[nH]1",
    "category": "Y"
  },
  {
    "substanceSmiles": "Clc1nc(NCc2nncs2)c2cc[nH]c2n1",
    "category": "N"
  },
  {
    "substanceSmiles": "Clc1nc(NCc2cnccn2)c2cc[nH]c2n1",
    "category": "Y"
  },
  {
    "substanceSmiles": "Clc1nc(NCc2ccncc2Cl)c2nc[nH]c2n1",
    "category": "N"
  },
  {
    "substanceSmiles": "Clc1nc(NCc2ccco2)c2cc(C3CC3)[nH]c2n1",
    "category": "Y"
  }
]

Moving on to the next compound.
Ask: Say whether C[C@@H](C#N)n1ccc2c(NCc3ccco3)nc(Cl)nc21 shows Emax of 70% or more.
Reply: N

* * *

As shown below, each of these compounds has a reported activation at 0.08 µM value.
Tested on: IKBKAP splicing (exon 20 inclusion) in FD fibroblasts GM04663
Test: Secondary assay: IKBKAP splicing analysis by RT-PCR in FD fibroblasts GM04663
Type: cell-based
Conditions: Homo sapiens; 0.08 μM; FD fibroblasts GM04663, 24 hours of treatment; read-out: % exon Inclusion Normalized
The figure you give is taken to be in %; do not add the unit.

Here's what some known entries look like.
[
  {
    "substanceSmiles": "FC(F)COc1nc2c(NCc3nccs3)nc(Cl)nc2[nH]1",
    "displayUnit": "%",
    "activation at 0.08 µM": 18.3
  },
  {
    "substanceSmiles": "Clc1nc(NCc2ccco2)c2nn[nH]c2n1",
    "displayUnit": "%",
    "activation at 0.08 µM": 0.06
  },
  {
    "substanceSmiles": "FC(F)(F)COc1nc2c(NCc3nccs3)nc(Cl)nc2[nH]1",
    "displayUnit": "%",
    "activation at 0.08 µM": 23.3
  }
]

Turning to the following compound.
Ask: What does the record list as activation at 0.08 µM for Clc1nc(NCc2ccncc2)c2cc[nH]c2n1 ?
Reply: 22.6

* * *

System: FD (familial dysautomonia) IKBKAP minigene, exon 20 inclusion, in HEK293T cells
Experiment: Primary splicing assay (FD IKBKAP minigene, Firefly/Renilla luciferase reporter in HEK293T)
Format: cell-based, human
Settings: Homo sapiens, HEK-293T; max efficacy in Primary Assay; Firefly/Renilla ratio, kinetin and DMSO as positive and negative controls; 24 hours of treatment; read-out: Emax (%)
As shown below, each of these compounds has a reported Emax value.
The figure you give is taken to be in %; do not add the unit.

Here's what some known entries look like.
[
  {
    "substanceSmiles": "CC(C)(COc1nc2c(NCc3nccs3)nc(Cl)nc2[nH]1)OCc1ccccc1",
    "Emax (%)": 11.4
  },
  {
    "substanceSmiles": "Cc1cc2c(NCc3ccco3)nc(Cl)nc2[nH]1",
    "Emax (%)": 174
  },
  {
    "substanceSmiles": "Clc1nc2c(c(NCc3ccco3)n1)COC2",
    "Emax (%)": 27.2
  },
  {
    "substanceSmiles": "COCCOc1nc2c(NCc3ccncn3)nc(Cl)nc2[nH]1",
    "Emax (%)": 204
  },
  {
    "substanceSmiles": "OCCn1cc(F)c2c(NCc3ccncc3)nc(Cl)nc21",
    "Emax (%)": 194
  },
  {
    "substanceSmiles": "FC(F)(F)CCOc1nc2c(NCc3ccco3)nc(Cl)nc2[nH]1",
    "Emax (%)": 176
  }
]

Ask: What does the record list as Emax for O=c1[nH]c2nc(Cl)nc(NCc3nccs3)c2[nH]1 ?
Reply: 101

Ask: Next compound up: Fc1cccc(CNc2nc(Cl)nc3[nH]ccc23)n1
Reply: 14.1

Ask: Next compound up: COCCOc1nc2c(NCc3ccco3)nc(Cl)nc2[nH]1
Reply: 169

Ask: Next compound up: CCCOc1nc2c(NCc3ccco3)nc(Cl)nc2[nH]1
Reply: 312

Ask: Next compound up: Clc1nc(NCc2ccco2)c2nc(C3CCC3)[nH]c2n1
Reply: 77

Ask: Next compound up: Clc1nc(NCc2ccco2)c2nc(OCCC3CC3)[nH]c2n1
Reply: 131

Ask: Next compound up: Clc1nc(NCc2ccno2)c2nc[nH]c2n1
Reply: 29

Ask: Next compound up: Clc1nc(NCc2nccs2)c2nc(OC3CCC3)[nH]c2n1
Reply: 128
